Sourced from patent US7378440B2

property_measured: melting point (°C)

molecule=O=C(NC(=O)c1cc(F)c(F)cc1Cl)Nc1ccccc1C(=O)N1CCC[C@H]1C(=O)O unit_annotation=°C reported_value=128.4
molecule="O=C(NC(=O)c1cc(F)c(F)cc1Cl)Nc1ccccc1C(=O)N1C2CCCCC2C[C@H]1C(=O)O (stereo partly drawn)" unit_annotation=°C reported_value=125
molecule="O=C(NC(=O)c1cc(F)c(F)cc1Cl)Nc1ccccc1C(=O)N1CC(F)(F)CC1C(=O)O (stereo not drawn)" unit_annotation=°C reported_value=102
molecule=O=C(NC(=O)c1cc(F)c(F)cc1Cl)Nc1ccccc1C(=O)N1CCC[C@@H]1C(=O)O unit_annotation=°C reported_value=123.5
molecule="O=C(NC(=O)c1cc(F)c(F)cc1Cl)Nc1ccccc1C(=O)N1CCCC1C(=O)O (stereo not drawn)" unit_annotation=°C reported_value=193.1
molecule="O=C(NC(=O)c1cc(F)c(F)cc1Cl)Nc1ccccc1C(=O)N1CCC1C(=O)O (stereo not drawn)" unit_annotation=°C reported_value=99
